Reported residual activity values for the following compounds.
target: LTK (human) (UniProt P29376); experiment: radiometric filter-binding kinase assay, Kinase HotSpot; details: compound 0.5 µM; ATP 10 µM
Sequence (P29376 whole entry, looked up): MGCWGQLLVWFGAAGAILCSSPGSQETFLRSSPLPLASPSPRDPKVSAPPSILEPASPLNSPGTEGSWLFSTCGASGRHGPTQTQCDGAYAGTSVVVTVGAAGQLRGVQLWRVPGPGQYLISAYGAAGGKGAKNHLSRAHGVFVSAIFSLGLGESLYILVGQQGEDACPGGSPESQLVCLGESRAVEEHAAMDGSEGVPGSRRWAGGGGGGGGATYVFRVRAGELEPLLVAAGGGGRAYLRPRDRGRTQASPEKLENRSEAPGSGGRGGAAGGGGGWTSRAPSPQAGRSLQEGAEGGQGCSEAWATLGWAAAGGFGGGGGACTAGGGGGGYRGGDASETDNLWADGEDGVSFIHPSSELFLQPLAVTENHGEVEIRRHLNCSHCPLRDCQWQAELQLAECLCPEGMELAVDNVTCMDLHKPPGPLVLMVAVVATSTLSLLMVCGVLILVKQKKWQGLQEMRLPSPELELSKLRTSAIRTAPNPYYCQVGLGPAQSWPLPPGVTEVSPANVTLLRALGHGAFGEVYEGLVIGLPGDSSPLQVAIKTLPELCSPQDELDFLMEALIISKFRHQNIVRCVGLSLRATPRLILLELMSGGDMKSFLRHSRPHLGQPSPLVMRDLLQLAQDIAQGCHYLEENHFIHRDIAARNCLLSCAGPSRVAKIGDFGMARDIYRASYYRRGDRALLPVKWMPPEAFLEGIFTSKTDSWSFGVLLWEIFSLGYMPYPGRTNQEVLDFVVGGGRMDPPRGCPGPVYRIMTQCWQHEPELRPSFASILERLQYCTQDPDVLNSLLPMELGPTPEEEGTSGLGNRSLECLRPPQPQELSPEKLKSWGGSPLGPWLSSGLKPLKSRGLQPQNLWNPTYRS
TEST READOUT: residual activity (%)

[[record]]
smiles_repr = "O=C(Nc1cccc(Nc2cc(Nc3cccc(C(F)(F)F)c3)ncn2)c1)C1CC1"
test_readout = "residual activity"
test_result = 96.8

[[record]]
smiles_repr = "O=C1c2ccccc2-[n+]2ccc3c([nH]c4ccccc43)c21"
test_readout = "residual activity"
test_result = 121

[[record]]
smiles_repr = "Cc1nc2cc3nc(-c4cccs4)cnc3cc2n1C"
test_readout = "residual activity"
test_result = 95.2

[[record]]
smiles_repr = "c1cc(-c2cnn3cc(-c4ccc(OCCN5CCCCC5)cc4)cnc23)ccn1"
test_readout = "residual activity"
test_result = 95.4

[[record]]
smiles_repr = "O=C1NC(=O)/C(=C\\c2ccc3nccnc3c2)S1"
test_readout = "residual activity"
test_result = 94.7

[[record]]
smiles_repr = "CCn1cnc2c(Nc3cccc(Cl)c3)nc(N[C@@H]3CCCC[C@@H]3N)nc21"
test_readout = "residual activity"
test_result = 93.8

[[record]]
smiles_repr = "CC(C)[C@H](CO)Nc1nc(Nc2cc(N)cc(Cl)c2)c2ncn(C(C)C)c2n1"
test_readout = "residual activity"
test_result = 103

[[record]]
smiles_repr = "O=C1NC(=O)C(c2cn(CCCO)c3ncccc23)=C1c1cnccn1"
test_readout = "residual activity"
test_result = 90.9

[[record]]
smiles_repr = "Nc1nnc2[nH]c3ccccc3nc1-2"
test_readout = "residual activity"
test_result = 89.4


These entries and their values trace back to the kinase profiling compilation of Christmann-Franck et al. (2016).
